test-name: Distribution coefficient, logD of compound at pH 7.4
Format: physicochemical
condition-summary: octanol/water
observation-type: logD

What does the record list as logD for `Cn1cc(-c2n[nH]c3cc(Cl)c(N[C@@H]4CCN(C5COC5)C4)cc23)cn1` ? 2.31

What about this molecule? `COc1ccc(-n2cc(-c3n[nH]c4cc(Cl)c(N[C@@H]5CCN(C6COC6)C5)cc34)cn2)cc1` 4.75

(I) Cn1cc(-c2n[nH]c3cc(Cl)c(N[C@@H]4CCNC4)cc23)cn1
(II) FC(F)(F)n1cc(-c2n[nH]c3cc(Cl)c(N[C@@H]4CCN(C5COC5)C4)cc23)cn1
Between item I and item II , which reported logD is smaller? Please reply using the label of the selected record. I
